- target-desc: Angiotensin-converting enzyme (Oryctolagus cuniculus) (UniProt P12822)
- Sequence (P12822 whole entry): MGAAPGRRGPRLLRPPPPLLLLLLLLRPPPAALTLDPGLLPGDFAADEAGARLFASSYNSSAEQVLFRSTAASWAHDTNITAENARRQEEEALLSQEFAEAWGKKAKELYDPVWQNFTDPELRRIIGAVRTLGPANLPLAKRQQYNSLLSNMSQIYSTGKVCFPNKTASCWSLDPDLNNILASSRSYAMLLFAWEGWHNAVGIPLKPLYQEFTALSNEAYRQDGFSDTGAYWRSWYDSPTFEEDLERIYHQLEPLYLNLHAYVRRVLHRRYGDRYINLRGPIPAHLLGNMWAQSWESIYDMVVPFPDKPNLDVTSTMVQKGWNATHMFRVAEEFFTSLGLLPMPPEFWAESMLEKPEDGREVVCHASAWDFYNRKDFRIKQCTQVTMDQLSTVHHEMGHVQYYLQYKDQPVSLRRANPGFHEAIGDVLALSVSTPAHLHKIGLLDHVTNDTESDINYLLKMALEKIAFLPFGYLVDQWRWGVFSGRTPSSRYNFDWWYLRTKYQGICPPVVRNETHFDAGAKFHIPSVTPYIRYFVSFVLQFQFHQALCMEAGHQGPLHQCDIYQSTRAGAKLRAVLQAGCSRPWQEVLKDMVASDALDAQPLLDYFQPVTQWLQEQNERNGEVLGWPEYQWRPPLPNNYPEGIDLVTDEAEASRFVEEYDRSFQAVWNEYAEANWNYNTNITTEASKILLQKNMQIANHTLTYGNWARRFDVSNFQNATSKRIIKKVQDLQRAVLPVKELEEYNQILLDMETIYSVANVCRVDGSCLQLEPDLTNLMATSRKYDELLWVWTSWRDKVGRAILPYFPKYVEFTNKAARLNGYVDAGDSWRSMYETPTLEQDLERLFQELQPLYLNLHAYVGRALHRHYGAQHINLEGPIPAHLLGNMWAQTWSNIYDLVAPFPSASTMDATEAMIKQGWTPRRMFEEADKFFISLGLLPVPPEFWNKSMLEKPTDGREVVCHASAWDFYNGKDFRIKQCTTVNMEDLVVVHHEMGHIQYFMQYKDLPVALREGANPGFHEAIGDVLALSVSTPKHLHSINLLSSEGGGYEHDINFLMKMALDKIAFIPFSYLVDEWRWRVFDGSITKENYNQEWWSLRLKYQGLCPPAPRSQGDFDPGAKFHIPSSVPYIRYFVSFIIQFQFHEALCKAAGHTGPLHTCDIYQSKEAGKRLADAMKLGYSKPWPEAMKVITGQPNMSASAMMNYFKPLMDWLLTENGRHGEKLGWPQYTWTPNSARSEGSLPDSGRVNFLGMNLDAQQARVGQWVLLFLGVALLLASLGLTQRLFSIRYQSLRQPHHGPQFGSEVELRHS
- protocol-details: Inhibition of rabbit lung ACE assessed as hippuryl-histidyl-leucine hydrolysis at 1 uM after 30 mins by colorimetric method
outcome-measure: inhibition

CCCCc1nc(Cl)c(C(=O)N[C@@H](Cc2ccccc2)C(=O)OC)n1C = > 80%
CCCCc1nc(Cl)c(C(=O)N[C@@H](C)C(=O)OC)n1C = 55%

The measured inhibition associated with "CCCCc1nc(Cl)c(C(=O)N[C@@H](CC(C)C)C(=O)O)n1C" reads 55%

"CCCCc1nc(Cl)c(C(=O)N[C@@H](Cc2ccc(O)cc2)C(=O)O)n1C" has a reported inhibition of 55%

For this molecule ( "CCCCc1nc(Cl)c(C(=O)N[C@H](C(=O)O)[C@H](C)O)n1C" ), measured inhibition is 55%

The molecule listed as "CCCCc1nc(Cl)c(C(=O)N[C@@H](Cc2c[nH]c3ccccc23)C(=O)O)n1C" has a reported inhibition of > 80%

Input "CCCCc1nc(Cl)c(C(=O)N[C@H](C(=O)O)C(C)C)n1C" . Output inhibition: 55%

What the record says about "CCCCc1nc(Cl)c(C(=O)N[C@@H](CO)C(=O)O)n1C" : inhibition is 55%

inhibition for "CCCCc1nc(Cl)c(C(=O)N[C@H](C(=O)O)[C@H](C)CC)n1C" is > 80%

Per the records, this molecule ( "CCCCc1nc(Cl)c(C(=O)N[C@@H](CCSC)C(=O)OC)n1C" ) has inhibition equal to 55%

Where these numbers come from: ChEMBL document CHEMBL3585246
